- System: NCI-H226 lung
- Protocol text: NCI-60 one-dose screen, 48 h (100 = growth as untreated, 0 = no growth, -100 = all killed)
- Recorded conditions: 10 µM unless noted
The panel holds about 83,000 compounds, 20% with a hit somewhere; the sample as a whole holds those more often.
Definition: the class of an entry is the range in bottom end: < 60%; midrange: ≥ 60% and < 90%; top end: ≥ 90% that contains its growth.

INSERT INTO results (compound, assigned_category) VALUES
  ('O=C(Nc1ccc(F)cc1)c1cc2cc(Nc3nc(-c4ccccc4)nc4ccccc34)ccc2oc1=O', 'top end'),
  ('O=C(N/N=C/c1ccc(O)cc1O)c1cccc(Nc2ccnc(C(F)(F)F)c2)c1', 'bottom end'),
  ('CCOC(=O)C(=Cc1ccc(C#N)cc1)C(=O)OCC', 'bottom end'),
  ('COc1ccc(-c2cc(-c3cccc(Cl)c3)c(C#N)c(=O)[nH]2)c(OC)c1', 'top end'),
  ('O=C(CCCCCCCCC(=O)N/N=C\c1ccccc1O)N/N=C\c1ccccc1O', 'bottom end'),
  ('O=S(=O)(Nc1cc(Sc2cccc3cccnc23)c(O)c2ccccc12)c1ccc(F)cc1', 'bottom end'),
  ('CC12OC(CC(O)C1O)n1c3ccccc3c3c4c(c5c6ccccc6n2c5c31)C(=O)N(CCN1CCOCC1)C4=O (configuration not stated)', 'bottom end'),
  ('C=C(CNCCO)[C@@H]1CC[C@]2(CO)CC[C@]3(C)[C@H](CC[C@@H]4[C@@]5(C)CCC(NCCc6ccc(O)cc6)C(C)(C)[C@@H]5CC[C@]43C)[C@@H]12 (some centres not stated)', 'bottom end'),
  ('CCCN1C(=O)/C(=c2\sc3n(c2=O)NC2C(N=3)N(CC)C(=O)N2CC)c2ccccc21 (configuration not stated)', 'midrange'),
  ('CC(=O)c1c(C)nc(SCC(=O)Nc2ccc(Cl)cc2)n1-c1ccc(Cl)cc1', 'top end'),
  ('O=C1/C(=C/c2ccc(F)c(F)c2)CN(C(=O)C(Cl)Cl)C/C1=C\c1ccc(F)c(F)c1', 'bottom end'),
  ('CCOC(=O)n1cc(-c2nonc2-c2cn(C)c3ccc(OC)cc23)c2cc(F)ccc21', 'midrange'),
  ('Nc1ncnc2c1C(c1ccc([N+](=O)[O-])cc1)c1sc3c(F)cccc3c1O2 (configuration not stated)', 'midrange'),
  ('N#Cc1cc(-c2ccnc(Nc3ccc(NC(=O)CCl)cc3)n2)ccc1N1CCCC1', 'bottom end'),
  ('c1ccc(Cc2cccc[n+]2C(c2ccccc2)c2ccccc2)cc1', 'midrange'),
  ('CC1=C2[C@@H](CC1)[C@]1(C)O[C@@](C3CC3)(C[C@H]1OC(=O)CO)[C@H]2OC(=O)/C=C/c1ccccc1', 'midrange'),
  ('CCN1C(=O)/C(=c2\sc3n(c2=O)C2C(NN=3)N(CC)C(=O)N2CC)c2ccccc21 (configuration not stated)', 'top end'),
  ('Clc1ccc2c(NCCN3CCN(c4ccnc(N5CCCC5)n4)CC3)ccnc2c1', 'midrange'),
  ('Cc1nn(-c2nc(-c3cc4ccccc4oc3=O)cs2)c(C)c1N=Nc1ccccc1', 'top end'),
  ('CCN1C(=O)N(c2ccccc2)C2NC(=S)N(/N=C/C=C/c3ccccc3)C21 (configuration not stated)', 'bottom end'),
  ('Nc1ncc(-c2ccc3ncnc(N4CCc5ccc(Cl)cc54)c3c2)cc1C(F)(F)F', 'bottom end'),
  ('O=C1CCCCN1CCCCC#Cc1cccc(C#Cc2cccnc2)c1', 'midrange'),
  ('O=S(=O)(Nc1ccc(F)cc1)c1ccc(-c2cnc(C3CC3)o2)cc1', 'midrange'),
  ('CSc1nnc(-c2cc3c([nH]c4ccccc43)c(-c3cccc(O)c3)n2)n1-c1ccc(C)cc1', 'bottom end'),
  ('CCN(c1cc(-c2ccc(CN3CCC(/C=C/S(=O)(=O)c4ccccc4)CC3)cc2)cc(C(=O)NCc2c(C)cc(C)[nH]c2=O)c1C)C1CCOCC1', 'midrange'),
  ('COc1cc(F)c(/C=C/c2cc(/C=C/c3cc(OC)c(OC)cc3F)n(-c3cc(F)cc(F)c3)n2)cc1OC', 'top end'),
  ('O=C(Nc1ccccc1C(=O)N/N=C(\c1ccccc1)c1ccccn1)c1ccccc1', 'bottom end'),
  ('CC(Sc1ccccc1)C(=O)O (configuration not stated)', 'top end'),
  ('Cc1ccc2nc3ccccc3c(NCc3ccc(Cl)cc3)c2c1', 'midrange'),
  ('Cc1ccc(-c2nc3nc(-c4ccc(F)cc4)nc(N4CCCNCC4)c3o2)cc1', 'top end'),
  ('Cc1ccc(S(=O)(=O)OC[C@@]2(C)CC[C@]3(C)CC[C@]4(C)C(=CC[C@@H]5[C@@]6(C)CCCNC(C)(C)[C@@H]6CC[C@]54C)[C@@H]3C2)cc1', 'bottom end'),
  ('CN1CCN(c2ccc(Nc3ncc(C(N)=O)c(NCCCNC(=O)C4CCC4)n3)cc2)CC1', 'midrange');

====

- System: NCI-H460 lung
- Protocol text: NCI-60 one-dose screen, 48 h (100 = growth as untreated, 0 = no growth, -100 = all killed)
- Recorded conditions: 10 µM unless noted
About 83,000 compounds went through this panel and 20% of them were active in at least one assay; those are over-represented in the sample as a whole.
Define the label as class 1 when growth is strictly less than 20% and as class 0 in all remaining cases.

INSERT INTO results (compound, system_name, assigned_category) VALUES
  ('CC(=NCc1ccccc1)c1ccc(O)cc1O', 'NCI-H460 lung', 'class 0'),
  ('COc1ccc2c(c1)CCNC21C(=O)Nc2c(Br)cc(Br)cc21 (stereo not given)', 'NCI-H460 lung', 'class 0'),
  ('Cc1ccc(NC(=O)c2sc3nc(C)c(C(=O)c4ccccc4)cc3c2N)cc1', 'NCI-H460 lung', 'class 0'),
  ('COc1cccc(NC(=O)c2sc3nc(C)c(C(O)c4ccccc4)cc3c2N)c1 (stereo not given)', 'NCI-H460 lung', 'class 1'),
  ('Cc1cc(N2CCN(CC(=O)Nc3ccc4c(ccn4Cc4ccccc4)c3)CC2)nc(N2CCCCCC2)n1', 'NCI-H460 lung', 'class 0'),
  ('Nc1nc(N)c2c(n1)NC(c1ccc(Cl)cc1)CC(c1cccc(Nc3ccncc3)c1)=N2 (stereo not given)', 'NCI-H460 lung', 'class 0'),
  ('COc1ccc(/C(C)=C(\c2ccc(OCCN3CCOCC3)cc2)c2ccc(OC(=O)C3CCCCC3)cc2)cc1', 'NCI-H460 lung', 'class 0'),
  ('COC(=O)c1nc(-c2ccc(C)cc2)oc1S(=O)(=O)c1ccc(Cl)cc1', 'NCI-H460 lung', 'class 0'),
  ('O=C1/C(=C/c2ccccc2)CN(C(=O)C(Cl)Cl)C/C1=C\c1ccccc1', 'NCI-H460 lung', 'class 1'),
  ('Nc1[nH]nc(Nc2ccccc2)c1-c1nc2ccccc2s1', 'NCI-H460 lung', 'class 1');

====

- Test system: HOP-62 NSCLC
- Protocol text: NCI-60 one-dose screen, 48 h (100 = growth as untreated, 0 = no growth, -100 = all killed)
- Recorded conditions: 10 µM unless noted
This is part of a sample that, as a whole, favours compounds with a hit. Of some 83,000 tested, about 20% had one in any assay.
Readings of growth for the listed compounds
Result type: growth (%)

INSERT INTO measurements (compound, result_type, unit, value_measured) VALUES
  ('O=C1C(=C(O)c2ccccc2)C(=O)c2ccccc21', 'growth', '%', 99.5),
  ('O=C(c1cccc(Br)c1)N1CCN(c2ccnc3cc(Cl)ccc23)CC1', 'growth', '%', 95.3),
  ('Cc1ccc(S(=O)(=O)Nc2cc(Sc3ccccc3)c(O)c3ccccc23)cc1', 'growth', '%', 112),
  ('CCCCCCNC(=O)Oc1ccc(/C(=C(/CC)Cc2ccccc2)c2ccc(OCCCN(C)C)cc2)cc1', 'growth', '%', 83.2),
  ('NCCOCCOc1ccccc1', 'growth', '%', 109),
  ('Cn1cc2c(=O)nc3c(-c4nc5ccccc5[nH]4)n[nH]n3c2n1', 'growth', '%', 73),
  ('CCCN1C(=O)/C(=c2\sc3n(c2=O)C2C(NN=3)N(CC)C(=O)N2CC)c2ccccc21 (centres undefined)', 'growth', '%', 45.8),
  ('C=C(C)[C@@H]1CC[C@]2(C(=O)N3CCN(C)CC3)CC[C@]3(C)[C@H](CC[C@@H]4[C@@]5(C)CC(CCCNC(C)=O)(CCCNC(C)=O)[C@H](OC(C)=O)C(C)(C)[C@@H]5CC[C@]43C)[C@@H]12', 'growth', '%', 103),
  ('O=C(/C=C/c1cccs1)Nc1ncc(Cc2ccc(Cl)c(Cl)c2)s1', 'growth', '%', 61.5);

====

- Tested on: NCI-H460 lung
- Protocol text: NCI-60 one-dose screen, 48 h
- Recorded conditions: 10 µM unless noted
About 83,000 compounds went through this panel and 20% of them were active in at least one assay; those are over-represented in the sample as a whole. Active and inactive are the calls of the source. The calls were made as follows: active = growth percent below 10; inactive = the rest.
Outcome codes: True for active, False for inactive

INSERT INTO assay_data (compound, assigned_category) VALUES
  ('COc1ccc(-c2nc(Cl)c3c(C)nn(-c4ccc(F)cc4)c3n2)cc1', 'False'),
  ('COc1ccc(-c2nn3c(-c4cc(F)c(Cl)cc4Cl)nnc3s2)cc1', 'False'),
  ('CCCCCCCCCCCCCCCCCCn1cc(COc2ccc(C=O)cc2)nn1', 'False'),
  ('O=C(CN1C(=O)S/C(=C\C(Cl)=C\c2ccccc2)C1=O)NCCCn1ccnc1', 'False'),
  ('CONC1=Nc2cc(NC(N)=NCc3ccccc3)c(N(C)C3CCCCC3)cc2OC1', 'False'),
  ('Nc1ccc(-c2nc3ccc4[nH]ncc4c3c3c2CCCC3)cc1F', 'False'),
  ('COc1ccc(/C=C2\COc3ccc(O)c(O)c3C2=O)c(OC)c1OC', 'False'),
  ('CN(C)C(=O)c1cc2cnc(Nc3ccc(-c4csc5c(=S)cc(N6CCOCC6)oc45)cc3)nc2n1C1CCCC1', 'True'),
  ('COCCOc1cc2ncnc(N3CCN(S(=O)(=O)c4ccccc4Cl)CC3)c2cc1OCCOC', 'False'),
  ('O=C(CCCOc1ccc(Br)cc1)Nc1ncc(Cc2ccc(F)cc2)s1', 'False'),
  ('O=C(CN1C(=O)S/C(=C\C(Cl)=C\c2ccccc2)C1=O)NC1C=CS(=O)(=O)C1 (centres undefined)', 'False'),
  ('CCC(=O)Oc1cc(Cl)c(Cl)cc1Cl', 'False'),
  ('C=C(C)[C@@H]1CC[C@]2(C)[C@H](CC(=O)N[C@H]3[C@@H]4C[C@](C)(C(=O)OC)CC[C@]4(C)CC[C@]32C)[C@@]1(C)CCC#N', 'False'),
  ('O=C(NCc1ccc(Cn2c(=O)sn(-c3ccc(Cl)cc3)c2=O)cc1)OCc1ccc2c(Cl)cc(Cl)c(O)c2n1', 'False'),
  ('c1cc(NCCCCN2CCOCC2)c2ccc3c(ccc4c(NCCN5CCOCC5)ccnc43)c2n1', 'False'),
  ('COC(=O)c1nc(-c2ccccc2)oc1S(=O)(=O)N(C)CCO', 'False'),
  ('Fc1ccccc1-c1cnn2cc(-c3ccccc3)cnc12', 'False'),
  ('COc1c(O)c(O)cc2c3c(oc12)CC(c1ccc2c(c1)OCO2)CC3=O (centres undefined)', 'False'),
  ('C=C1CC[C@@H]2[C@](C)(COC(C)=O)[C@H](OC(C)=O)CC[C@@]2(C)[C@@H]1CC(Nc1ccc(S(=O)(=O)Nc2nccs2)cc1)C1=CCOC1=O (some centres undefined)', 'False');
